Would you kindly list relative viability for each of these molecules?
test system: HCC-15; test: relative viability (nuclei count vs DMSO), 5 days (fraction); higher = more cells survive; conditions: first compound 0.8 µM
Give bare numbers.

Study these solved cases before continuing.
Oc1nc(-c2ccc(C(F)(F)F)cc2)nc2c1CSCC2 [XAV939] + CC(=O)c1c(C)c2cnc(Nc3ccc(N4CCNCC4)cn3)nc2n(C2CCCC2)c1=O [Palbociclib] (partner 0.5 µM)	0.721
Oc1nc(-c2ccc(C(F)(F)F)cc2)nc2c1CSCC2 [XAV939] + O=C(CCCCCCC(=O)Nc1ccccc1)NO [Vorinostat] (partner 1 µM)	0.837
C=C1C(=O)O[C@@H](CCCCCCCC)[C@@H]1C(=O)O [C-75] + CCNC(=O)c1noc(-c2cc(C(C)C)c(O)cc2O)c1-c1ccc(CN2CCOCC2)cc1 [Luminespib] (partner 0.01 µM)	0.148
C=C1C(=O)O[C@@H](CCCCCCCC)[C@@H]1C(=O)O [C-75] + Nc1ncn([C@H]2C[C@H](O)[C@@H](CO)O2)c(=O)n1 [Decitabine] (partner 2 µM)	0.551

Kindly review the next molecule as well.
Which relative viability value is on record for Oc1nc(-c2ccc(C(F)(F)F)cc2)nc2c1CSCC2 [XAV939] + C[C@@H](Oc1cc(-c2cnn(C3CCNCC3)c2)cnc1N)c1c(Cl)ccc(F)c1Cl [Crizotinib] (partner 1 µM) ? 0.823
